The measurements presented in this section are drawn from paper PMC9352680.

pKd: recorded values
- Measured target: T1, PUF4 RNA-binding domain (Saccharomyces cerevisiae, UniProt P25339 537-888)
- T1 sequence: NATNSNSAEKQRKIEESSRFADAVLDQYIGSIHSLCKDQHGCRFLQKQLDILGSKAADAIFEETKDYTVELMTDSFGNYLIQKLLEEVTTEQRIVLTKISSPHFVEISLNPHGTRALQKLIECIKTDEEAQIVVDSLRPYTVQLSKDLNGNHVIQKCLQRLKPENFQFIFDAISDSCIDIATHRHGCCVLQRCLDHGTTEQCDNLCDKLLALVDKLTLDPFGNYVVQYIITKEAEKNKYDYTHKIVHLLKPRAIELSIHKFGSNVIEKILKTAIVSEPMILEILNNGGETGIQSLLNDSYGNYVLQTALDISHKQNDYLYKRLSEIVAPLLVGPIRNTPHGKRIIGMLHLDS
- Run description: Mg; RNA-MaP; 20 mM Na-HEPES pH 7.4, 30 mM KOAc, 0.75 mM MgCl2, 0.1% Tween-20, 5% glycerol, 0.1 mg/mL BSA, 2 mM DTT; 25 C; 0.0125-409.6 nM protein
- Assay conditions: tags: N-His6-TEV cleaved; C-SNAP kept, Cy3B-labelled; label: tethered on chip by stalled RNA polymerase
Notebook: values listed as pKd are -log10 of the concentration (mol/L).

Below, 4 binders whose answers are already recorded.
Binder	Numeric value
UCUCUUUCUUGUAUUAUUAAAUCUCUU (ssRNA) [Id_iii_S1_P5E.5_K5.1_C5.3_H5.1_A5.1_F5.1_T5.2_[T11A]]	7.96
Ic_S4_P4E.1_K4.1_C4.1_H4.1_A4.1_F4.1_[T8C]_[A9C]_T4.1 (ssRNA) RNA: UUUGACAACUGAUCGUUCUUUCUUGUAUAUCCUUCUUUCUCGAUCAGUUGUCUUU	7.91
UCUCUUUGUAUAUCCUUCUCUU (ssRNA) [Ic_S1_P5E.1_K5.1_C5.1_H5.1_A5.1_[T6A]_[A7T]_F5.1_[T8C]_[T9C]_[A10T]_T5.1]	7.62
UCUCUUUGUACAUUUCUCUU (ssRNA) [Ic_S1_P3E.1_K3.1_C3.1_H3.1_A3.1_[T5C]_F3.1_[A8T]_T3.1]	8.27

Then there is this binder:
Data request: Look up pKd: Id_iii_S2_P4E.8_K4.4_C4.3_H4.1_A4.2_F4.1_T4.2_[G10T] (ssRNA) RNA: UUUGAUUAAUAUGAUAUCGUUCUUUCUUCUUGUAUUUUAUUUUCUUUCUCGAUAUCAUAUUAAUCUUU
Data returned: 9.01
